ASSAYED_SYSTEM: UniProtKB O14757
Sequence (O14757 whole entry, looked up): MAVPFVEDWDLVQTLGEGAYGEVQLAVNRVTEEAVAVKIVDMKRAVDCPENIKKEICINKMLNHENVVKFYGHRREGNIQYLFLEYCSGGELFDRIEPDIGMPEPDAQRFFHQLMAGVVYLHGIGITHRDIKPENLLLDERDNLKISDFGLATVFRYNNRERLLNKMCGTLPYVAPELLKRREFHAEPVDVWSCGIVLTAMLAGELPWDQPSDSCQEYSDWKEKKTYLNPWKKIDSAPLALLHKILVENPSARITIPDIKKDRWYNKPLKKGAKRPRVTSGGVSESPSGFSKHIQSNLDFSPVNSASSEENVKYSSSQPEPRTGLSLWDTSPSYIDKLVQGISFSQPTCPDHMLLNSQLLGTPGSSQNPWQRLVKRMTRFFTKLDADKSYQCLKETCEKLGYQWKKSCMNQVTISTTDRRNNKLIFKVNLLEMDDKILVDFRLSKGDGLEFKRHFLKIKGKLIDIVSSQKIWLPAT
PROTOCOL_DETAILS: radiometric filter-binding kinase assay
REPORTED_CONDITIONS: compound 1.0 µM
MEASUREMENT_TYPE: residual activity
Please give the number followed by its unit.

INSERT INTO results (molecule, assayed_system, measurement_type, value) VALUES
  ('Cc1ccc(=O)n(-c2ccccc2)c1', 'UniProtKB O14757', 'residual activity', '97%'),
  ('O=C(Nc1ccccc1-c1cn2c(CN3CCNCC3)csc2n1)c1cnc2ccccc2n1', 'UniProtKB O14757', 'residual activity', '98%'),
  ('CCn1c(-c2nonc2N)nc2cncc(CNC3CCNCC3)c21', 'UniProtKB O14757', 'residual activity', '88%'),
  ('O=C(N[C@@H](COc1ccc2[nH]c(=O)[nH]c2c1)c1ccccc1)c1cccn(Cc2ccc(F)c(F)c2)c1=O', 'UniProtKB O14757', 'residual activity', '94%'),
  ('NC1(c2ccc(-c3nc4ccn5c(=O)[nH]nc5c4cc3-c3ccccc3)cc2)CCC1', 'UniProtKB O14757', 'residual activity', '78%'),
  ('O=C(O)c1ccc(-c2c[nH]c3ncc(-c4ccccc4)cc23)cc1C1CCCC1', 'UniProtKB O14757', 'residual activity', '108%'),
  ('NC(=O)c1c(NC(=O)C2CC2)sc2c1CCCC2', 'UniProtKB O14757', 'residual activity', '95%'),
  ('COc1cc2ncn(-c3cc(OCc4ccccc4S(C)(=O)=O)c(C#N)s3)c2cc1OC', 'UniProtKB O14757', 'residual activity', '79%');

So for Cc1cc(NC(=O)c2cccc(NC(=O)/C=C/CN(C)C)c2)ccc1Nc1nccc(-c2cccnc2)n1 , the logged residual activity turned out to be 87%

Form: molecule = NC(=O)c1ccc(-c2ccc(Oc3cncc4sc(-c5nn[nH]n5)cc34)cc2)cc1 ; residual activity = 79%

The molecule listed as CNc1nc(-c2ccc3c(N)n[nH]c3c2)cc(N2C[C@@H](C(=O)NC3CCCCC3)CC[C@H]2C)n1 has a reported residual activity of 96%

The reported residual activity of the molecule O=C(NOC[C@H](O)CO)c1ccc(F)c(F)c1Nc1ccc(I)cc1Cl was 130%

Reported residual activity for Cc1cc(SCc2sc(-c3ccc(C(F)(F)F)cc3)nc2C)ccc1OCC(=O)O was 102%

Input Cn1nc(Nc2ccc(F)cc2)c2c(N)ncnc21 . Output residual activity: 118%

Notebook: COc1ccc(N(C(=O)Nc2c(C)cccc2C)c2cc(Nc3ccc(N4CCN(C)CC4)cc3)ncn2)c(OC)c1 , residual activity read as 86%

Value of residual activity reported for the molecule COc1cc(C(=O)N2CCOCC2)c(F)cc1Nc1ncc(C(F)(F)F)c(NC2CC2)n1 is 58%

In plain terms, Cc1nc(-c2ccc(OCC(C)C)c(C#N)c2)sc1C(=O)O has a documented residual activity of 85%

Recorded residual activity (molecule COc1cc(O)c2c(c1)/C=C/C[C@H](O)[C@H](O)C(=O)/C=C\C[C@H](C)OC2=O ): 92%

Per the records, this molecule ( Cn1c(=O)c2c(ncn2C)n(C)c1=O ) has residual activity equal to 96%

For reference, reported residual activity for NC(=O)c1cc(-c2ccnc(NC3CCCCC3)c2)nc(N2CCNCC2)c1 stands at 100%

The reported residual activity of the molecule O=C(Nc1nc2cc(C(F)(F)F)cc(NC3CC3)n2n1)c1cccnc1 was 104%
